tested on: MDA-MB-468; test: SRB protein staining tumor cell proliferation assay; format: cell-based; settings: read-out: IC50(mean ± SD)
Consider the following molecules; for each one, report its pIC50.
The quantity pIC50 is defined as the negative base-10 logarithm of the molar concentration.

Identify measured pIC50 corresponding to CC[C@@]1(O)C(=O)OCc2c1cc1n(c2=O)Cc2cc3c([N+](=O)[O-])cccc3nc2-1 [9NC, 9-nitrocamptothecin]
7.19

In one line, give reported pIC50 of the entry CCc1c2c(nc3ccc(O)cc13)-c1cc3c(c(=O)n1C2)COC(=O)[C@]3(O)CC [SN38] .
7.02

----------
Tested on: BEL-7402
Assay: SRB protein staining tumor cell proliferation assay
Format: cell-based
Conditions: BEL-7402; read-out: IC50(mean ± SD)
Description: 1. Sulfonyl rhodamine B (SRB) protein staining assays were used to detect the inhibition of tumor cell proliferation of the compound.
Exercise: for every item that follows, state its recorded IC50.

Given "CCc1c2c(nc3ccc(O)cc13)-c1cc3c(c(=O)n1C2)COC(=O)[C@]3(O)CC" , respond with its IC50.
136 nM

Give the value of IC50 reported for the following: "CC[C@@]1(O)C(=O)OCc2c1cc1n(c2=O)Cc2cc3c([N+](=O)[O-])cccc3nc2-1"
58.8 nM

----------
tested on: BEL-7402; assay: SRB protein staining tumor cell proliferation assay; format: cell-based; conditions: Homo sapiens, Bel-7402; read-out: IC50(mean ± SD)
PARAMETER MEASURED: IC50 (nM)
Return type: number; implicit unit nM.

Determine its reported IC50: "CC[C@@]1(O)C(=O)OCc2c1cc1n(c2=O)Cc2cc3c(CN(C)C)c(O)ccc3nc2-1"
420

----------
system: NCI-H23; assay: SRB protein staining tumor cell proliferation assay; type: cell-based; conditions: Homo sapiens, read-out: IC50(mean ± SD)
PARAMETER MEASURED: IC50 (nM)
Give a bare numeral; the unit nM is implied.

GET IC50 where system = NCI-H23 and item = "CC[C@@]1(O)C(=O)OCc2c1cc1n(c2=O)Cc2cc3c(CN(C)C)c(O)ccc3nc2-1"
122

----------
system: thirteen tumor cell lines; assay: SRB proliferation assay, panel of thirteen tumor cell lines; type: cell-based; settings: mean over thirteen tumor cell lines
Kindly state IC50 for each of the entries shown.
# output: bare number, implied unit nM

Respond only with IC50 recorded for "CC[C@@]1(O)C(=O)OCc2c1cc1n(c2=O)Cc2cc3c(CN(C)C)c(O)ccc3nc2-1"
379

Tell me measured IC50 for "CC[C@@]1(O)C(=O)OCc2c1cc1n(c2=O)Cc2cc3c([N+](=O)[O-])cccc3nc2-1" please.
167

Return the recorded IC50 value; entry: "CCc1c2c(nc3ccc(O)cc13)-c1cc3c(c(=O)n1C2)COC(=O)[C@]3(O)CC"
218

----------
system: NCI-H23; experiment: SRB protein staining tumor cell proliferation assay; type: cell-based; settings: read-out: IC50(mean ± SD)
Task for the reader: assign each of the following compounds its reported pIC50.
Please report pIC50 as the negative decimal logarithm of the molar concentration, giving only the number.

Consider the compound CCc1c2c(nc3ccc(O)cc13)-c1cc3c(c(=O)n1C2)COC(=O)[C@]3(O)CC [SN38] . State its measured pIC50.
6.63

Return value of pIC50 for input CC[C@@]1(O)C(=O)OCc2c1cc1n(c2=O)Cc2cc3c([N+](=O)[O-])cccc3nc2-1 [9NC, 9-nitrocamptothecin] , no commentary.
7.15
